Experiment: ACEA_ER_AUC_viability: ACEA Biosciences xCELLigence Real-Time Cell Analysis on Estrogen Receptor Agonism for Viability (AID 2283782);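 also: continuous compound exposure with impedance area under curve over 80 h; hit means loss of impedance signal meaning reduced cell growth or viability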
Method: ACEA_ER is a cell-based, single-readout assay that uses T47D, a human breast cell line, with measurements taken at 80 hours after chemical dosing in a 96-well plate, although TO2 (mc0.srcf) used a 384-well plate. Differences in plate size can be ignored given data normalization.ACEA_ER_AUC_viability is one of two assay component(s) measured or calculated from the ACEA_ER assay. […]
Inconclusive results are not listed. Activity calls are given as the source filed them. The calls were made as follows: active = hit-call score of the fitted dose curve at least 0.9, where 1 is the maximum; inconclusive = response in the unintended direction; inactive = score below 0.9.
QUANTITY: AC50

MOLECULE | RECORDED VALUE
CCCCCCCCCCc1ccccc1 | 26.2 µM (active)
C=CC(C)(CCC=C(C)C)OC(=O)C(C)C (configuration not stated) | inactive
CCN(Cc1cccc(S(=O)(=O)O)c1)c1ccc(C(=C2C=CC(=[N+](CC)Cc3cccc(S(=O)(=O)[O-])c3)C=C2)c2ccccc2)cc1 | inactive
O=C1CCCCCCCCCCCCCCCO1 | inactive
CCCCCCC(O)CO (configuration not stated) | 40 µM (active)
CC(C)(C)c1ccc(OC(=O)c2ccccc2O)cc1 | 66.2 µM (active)

Read the next record carefully.
Exam item: Suppose we examine the molecule CC(=O)CC(N)=O ; what AC50 value has been reported?
Marked response: inactive
